biological target: T1, mouse TfR ectodomain fused to a mouse IgG1 Fc fragment (mouse, UniProt Q62351 89-763); assay: SPR, kinetic
T1 construct: extracellular domain; not shown: mouse IgG1 Fc fragment
T1 sequence (Q62351 89-763): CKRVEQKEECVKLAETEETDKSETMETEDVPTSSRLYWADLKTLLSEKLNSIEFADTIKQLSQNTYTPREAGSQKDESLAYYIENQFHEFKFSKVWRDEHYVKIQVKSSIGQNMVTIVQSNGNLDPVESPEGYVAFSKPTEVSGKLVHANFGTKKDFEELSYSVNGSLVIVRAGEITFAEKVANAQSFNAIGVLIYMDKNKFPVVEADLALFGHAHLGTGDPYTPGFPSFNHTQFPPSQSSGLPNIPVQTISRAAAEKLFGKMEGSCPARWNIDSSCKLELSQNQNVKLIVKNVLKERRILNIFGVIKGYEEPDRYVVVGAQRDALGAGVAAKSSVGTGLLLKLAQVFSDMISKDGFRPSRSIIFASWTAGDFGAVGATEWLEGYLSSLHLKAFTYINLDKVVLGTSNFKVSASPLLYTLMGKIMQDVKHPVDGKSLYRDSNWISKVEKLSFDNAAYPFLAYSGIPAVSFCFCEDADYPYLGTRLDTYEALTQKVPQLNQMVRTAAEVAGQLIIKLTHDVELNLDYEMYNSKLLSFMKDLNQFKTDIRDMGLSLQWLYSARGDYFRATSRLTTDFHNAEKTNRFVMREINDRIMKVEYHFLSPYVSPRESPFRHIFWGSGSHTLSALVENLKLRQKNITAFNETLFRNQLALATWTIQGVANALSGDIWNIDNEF
Overview of recorded pKd for various binders
Schema: pKd number; meaning minus log10 of the concentration expressed in molar units.

Please review the entries below; each comes with its answer.
{"columns": ["Binder", "pKd"],
 "data": [
  ["VHH D (H3) (VHH) VHH: EVQLVESGGGEVQPGGSLKLSCVASGTDFSINFVRWYRQRPGKQREWVAGFTANGDTNYPDSMKGRFTISRDNAKNTVYLQINSLKSEDTAVYYCYMLDNWGQGTQVTVSS", 7.81],
  ["VHH A4 (C5^V4) (VHH) VHH: EVQLVESGGGVVQPGGSLKLSCVASGTDFSINFIRWYRQAPGKQREFVAGFTATGATNYADSMKGRFTISRDNTKNAVYLQIDSLKPEDTAVYYCYMLDKWGQGTQVTVSS", 7.05],
  ["C5^h19 (VHH) VHH: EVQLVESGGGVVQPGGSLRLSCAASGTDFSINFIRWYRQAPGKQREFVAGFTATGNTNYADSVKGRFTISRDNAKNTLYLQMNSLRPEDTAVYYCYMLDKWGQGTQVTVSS", 6.19]
]}

State its pKd: C5^V16h20 (VHH) VHH: EVQLVESGGGVVQPGGSLRLSCAASGTDFSINFIRWYRQAPGKGLEFVAGFTATGNTNYADSVKGRFTISRDNAKNAVYLQMNSLRPEDTAVYYCYILDKWGQGTQVTVSS 6.52

Find the measured pKd of VHH A15 (C5^V15) (VHH) VHH: EVQLVESGGGVVQPGGSLKLSCVASGTDFSINFIRWYRQAPGKQREFVAGFTATGNTNYADSMKGRFTISRDNTKNAVYLQIDSLKPEDTAVYYCFMLDKWGQGTQVTVSS and report it. 7.15

State its pKd: C5^V27 (VHH) VHH: EVQLVESGGGVVQPGGSLKLSCVASGADFSINYIRWYRQAPGKQREFVAGFTATGNTNYADSMKGRFTISRDNTKNAVYLQIDSLKPEDTAVYYCYMLDKWGQGTQVTVSS 6.68
